Biological target: Adrenergic receptor alpha-1 (Rattus norvegicus, UniProt P15823+P23944+P43140)
Experiment: Binding affinity towards alpha-1 adrenergic receptor from rat brain homogenate preparation by displacement of [3H]prazosin
Type: tissue-based
Measured parameter: Ki (nM)

COc1cc2nc(N3CCN(c4nccc(C)n4)CC3)cc(N)c2cc1OC = 0.63
COc1cc2nc(N3CCN(c4nccc(N(C)C)n4)CC3)cc(N)c2cc1OC = 0.46
COc1cc2nc(N3CCN(c4ccccc4)CC3)cc(N)c2cc1OC = 1.72

P: CCCNC(=O)N1CCN(c2cc(N)c3cc(OC)c(OC)cc3n2)CC1
Q: COc1cc2nc(N3CCN(C(C)=O)CC3)cc(N)c2cc1OC
Q) Which gives the smaller Ki number: P or Q ? Pick one and reply with its label.
A) P
(P: 0.44 nM, Q: 1.17 nM)

A: COc1cc2nc(N3CCCCC3)cc(N)c2cc1OC
B: COc1cc2nc(N3CCN(C(=O)Nc4ccccc4)CC3)cc(N)c2cc1OC
C: COc1cc2nc(N3CCN(C(=O)c4ccccc4)CC3)cc(N)c2cc1OC
Q) Hey, quick one: sort these by Ki, low to high? Answer format: list of labels, ordered as asked.
A) B, C, A
(B: 0.34 nM, C: 0.49 nM, A: 2.93 nM)

I: COc1cc2nc(N3CCN(C(=O)C4COc5ccccc5O4)CC3)cc(N)c2cc1OC (stereo not drawn)
II: C=CCNC(=O)N1CCN(c2cc(N)c3cc(OC)c(OC)cc3n2)CC1
Q) Param metric = Ki; output whichever of I , II has the minimum value. # respond with the chosen item's label
A) II

1: CCOc1ccnc(N2CCN(c3cc(N)c4cc(OC)c(OC)cc4n3)CC2)n1
2: COc1cc2nc(N3CCNCC3)cc(N)c2cc1OC
3: COc1cc2nc(N3CCN(C(=O)c4ccco4)CC3)cc(N)c2cc1OC
Q) In this exercise, place the 3 compounds in ascending sequence of their recorded Ki. As an answer, provide the labels arranged in the order called for.
A) 3, 1, 2
(3: 0.14 nM, 1: 0.42 nM, 2: 30.06 nM)

====

System: Rattus norvegicus
Experiment: Percent reduction in Spontaneously hypertensive rat blood pressure after 1 h of 3 mg/kg, po administration
Type: functional
Measured parameter: Reduction (%)
Express your answer in %, writing the number without its unit.

Worked cases, Reduction given:
COc1cc2nc(N3CCN(C(=O)C4COc5ccccc5O4)CC3)cc(N)c2cc1OC (stereo unspecified) = 6
COc1cc2nc(N3CCN(c4nccc(N(C)C)n4)CC3)cc(N)c2cc1OC = 16
COc1cc2nc(N3CCN(C(=O)c4ccco4)CC3)nc(N)c2cc1OC [PRAZOSIN] = 24
COc1cc2nc(N3CCN(c4nccc(C)n4)CC3)cc(N)c2cc1OC = 10
COc1cc2nc(N3CCNCC3)cc(N)c2cc1OC = 11

Q) Entry "CCOc1ccnc(N2CCN(c3cc(N)c4cc(OC)c(OC)cc4n3)CC2)n1" has what Reduction?
A) 19

Q) Any idea what Reduction was measured for "COc1cc2nc(N3CCN(Cc4ccccc4)CC3)cc(N)c2cc1OC" ?
A) 8

Q) Fill in: Reduction of "COc1cc2nc(N3CCN(c4ccccc4)CC3)cc(N)c2cc1OC" is ___
A) 8
